# Test system: SK-MEL-5 melanoma
# protocol: NCI tumour cell line growth inhibition, 48 h; in the data active = GI50 below about 0.43 µM; inactive = the rest
Hi there, use one of these labels in your reply, thanks! active, inactive

Examples from the recorded data:
Nc1c(C(=O)Nc2ccccn2)sc2nc3c(cc12)CCCCCC3: inactive
COc1cc(OC)c(/C=C/C(=O)c2c(N)cc(OC)cc2OC)c(OC)c1: active
COC(=O)C1=Nc2ccc(F)cc2/C1=C/c1sc(=S)[nH]c1O: active
Cc1ccc(-c2nc(C(Cl)Cl)nc3cc(C)nn23)cc1: inactive
CCc1c(C#N)c(SC(C(N)=O)c2ccccc2)nc(N2CCC(N)CC2)c1C#N (stereo unspecified): inactive

Please turn your attention to the following entry.
Which outcome was assigned to Cc1ccc(NC2=CC(=O)C(=O)c3ccccc32)c(C)c1 in this test? inactive
